Molecular target: Sodium/glucose cotransporter 2 (Homo sapiens, UniProt P31639)
Sequence (P31639 whole entry): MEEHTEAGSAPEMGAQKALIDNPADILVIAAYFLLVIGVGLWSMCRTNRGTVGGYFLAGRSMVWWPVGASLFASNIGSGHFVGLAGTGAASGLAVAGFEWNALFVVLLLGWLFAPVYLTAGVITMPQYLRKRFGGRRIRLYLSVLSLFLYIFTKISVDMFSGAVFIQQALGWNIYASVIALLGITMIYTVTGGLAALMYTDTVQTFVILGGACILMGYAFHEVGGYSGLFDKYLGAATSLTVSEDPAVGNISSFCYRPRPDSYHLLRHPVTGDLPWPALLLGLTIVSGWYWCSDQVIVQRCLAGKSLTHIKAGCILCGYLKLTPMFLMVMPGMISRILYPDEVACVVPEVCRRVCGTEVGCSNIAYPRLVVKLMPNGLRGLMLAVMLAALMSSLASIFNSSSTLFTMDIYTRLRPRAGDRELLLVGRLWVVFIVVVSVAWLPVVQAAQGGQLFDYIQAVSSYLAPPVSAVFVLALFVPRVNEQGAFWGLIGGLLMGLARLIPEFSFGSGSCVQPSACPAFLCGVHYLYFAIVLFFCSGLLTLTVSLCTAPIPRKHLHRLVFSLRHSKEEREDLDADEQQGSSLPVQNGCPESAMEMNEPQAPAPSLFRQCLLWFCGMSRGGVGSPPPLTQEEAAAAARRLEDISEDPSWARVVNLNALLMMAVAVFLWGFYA
Assay: Inhibition of human SGLT2 expressed in CHO cells assessed as inhibition of sodium-dependent methyl-alpha-D-[U-14C]glucopyranoside uptake after 2 hrs
Type: cell-based
pIC50: −log10 of the molar value.
quantity-name: pIC50

smi=CCc1ccc(Cc2cc([C@@H]3O[C@H](CO)[C@@H](O)C[C@H]3O)ccc2C)cc1 comparator== observed_measurement=5.70
smi=CCc1ccc(Cc2cc([C@H]3C[C@@H](O)[C@H](O)[C@@H](CO)O3)ccc2C)cc1 comparator=< observed_measurement=5.00
smi=COc1ccc(Cc2cc([C@@H]3O[C@H](C)[C@@H](O)[C@H](O)[C@H]3O)ccc2Cl)cc1 comparator== observed_measurement=8.62
smi=CCc1ccc(Cc2cc([C@@H]3OC4(COC4)[C@@H](O)[C@H](O)[C@H]3O)ccc2C)cc1 comparator== observed_measurement=8.47
smi=CCc1ccc(Cc2cc([C@@H]3O[C@H](CO)[C@H](O)[C@H](O)[C@H]3O)ccc2C)cc1 comparator== observed_measurement=6.86
